Quick list: IC50 per entry.
- target-entity: Human complement C1s enzyme (Homo sapiens, UniProt P09871)
- Construct: purified from human serum, Complement Technology, Inc
- Sequence (P09871 438-688 limits assumed): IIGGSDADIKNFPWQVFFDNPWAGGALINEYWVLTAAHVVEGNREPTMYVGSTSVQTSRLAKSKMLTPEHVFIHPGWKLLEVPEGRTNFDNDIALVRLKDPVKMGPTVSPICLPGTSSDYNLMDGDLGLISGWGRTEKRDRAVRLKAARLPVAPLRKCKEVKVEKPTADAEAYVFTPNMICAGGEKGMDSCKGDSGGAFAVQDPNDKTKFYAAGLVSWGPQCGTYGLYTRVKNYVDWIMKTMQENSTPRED
- Sequence (P09871 16-437 partner limits assumed): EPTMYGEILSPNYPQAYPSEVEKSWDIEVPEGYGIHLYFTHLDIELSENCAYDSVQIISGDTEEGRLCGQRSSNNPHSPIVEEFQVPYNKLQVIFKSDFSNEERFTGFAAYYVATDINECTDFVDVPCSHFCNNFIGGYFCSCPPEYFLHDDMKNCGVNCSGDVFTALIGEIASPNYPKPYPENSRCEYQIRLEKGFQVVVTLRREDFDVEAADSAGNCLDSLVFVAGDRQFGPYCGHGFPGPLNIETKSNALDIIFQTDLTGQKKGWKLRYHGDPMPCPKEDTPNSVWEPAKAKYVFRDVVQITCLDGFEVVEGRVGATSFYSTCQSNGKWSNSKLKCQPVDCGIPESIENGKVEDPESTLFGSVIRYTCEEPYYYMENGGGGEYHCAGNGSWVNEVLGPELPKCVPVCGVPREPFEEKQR
- protocol-notes: Human C1s enzyme assay
- conditions-used: human complement C1s enzyme 1.16 nM, substrate Z-L-Lys-SBzl, A405; read-out: IC50 (Stars)

Illustrative cases are given below, each with its answer.
> print(dat)
                               smiles.entry          result
1  O=C(Cn1c(-c2ccccc2)ncc(NC(=O)c2ncc(-c3ccccc3)[nH]2)c1=O)NCc1cc2cnccc2[nH]1        < 100 nM
2  C[C@@H](Nc1ncc(-c2ccccc2F)n(CC(=O)NCc2cc3cnccc3[nH]2)c1=O)c1ccc2oc3ccccc3c2c1        < 100 nM
3  C[C@@H](Nc1cnc(N2CCCCC2)n(CC(=O)NCc2cc3cnccc3[nH]2)c1=O)c1csc(-c2ccccc2)n1  100 to 1000 nM
4  COc1cccc(-c2nc(C(=O)Nc3cnc(-c4ccccc4)n(CC(=O)NCc4cc5cnccc5[nH]4)c3=O)co2)c1        < 100 nM
5  C[C@@H](Nc1ncc(N2CCCCC2)n(CC(=O)NCc2cc3cnccc3[nH]2)c1=O)c1ccc2oc3ccccc3c2c1        < 100 nM

Missing value: IC50, Human complement C1s enzyme (Homo sapiens, UniProt P09871), entry Cc1cccc(-c2ncc(NCCCc3ccccc3)c(=O)n2CC(=O)NCc2cc3cnccc3[nH]2)c1F . Fill in? < 100 nM

Missing value: IC50, Human complement C1s enzyme (Homo sapiens, UniProt P09871), entry O=C(Cn1c(-c2ccccc2)ncc(NCCCCCc2ccccc2)c1=O)NCc1cc2cnccc2[nH]1 . Fill in? < 100 nM

====

- target-entity: Human complement C1s enzyme (Homo sapiens)
- Construct: purified from human serum, Complement Technology, Inc
- protocol-notes: Human C1s enzyme assay
- conditions-used: human complement C1s enzyme 1.16 nM, substrate Z-L-Lys-SBzl, A405; read-out: IC50 (Stars)
pIC50: −log10 of the molar value.
assay-endpoint: pIC50

Illustrative cases are given below, each with its answer.
> print(dat)
                                    compound  assay.endpoint        result
 1  O=C(Cn1c(-c2cccc(F)c2)ncc(NCc2ccc3oc4ccccc4c3c2)c1=O)NCc1cc2cnccc2[nH]1           pIC50        > 7.00
 2  C[C@@H](Nc1cnc(C2CC2)n(CC(=O)NCc2cc3cnccc3[nH]2)c1=O)c1ccc2oc3ccccc3c2c1           pIC50  6.00 to 7.00
 3  O=C(Cn1c(-c2ccc(OCc3ccccc3)cc2)ncc(NCc2ccc3oc4ccccc4c3c2)c1=O)NCc1cc2cnccc2[nH]1           pIC50        > 7.00
 4  CS(=O)(=NC#N)c1ccc(-c2ncc(NCCCc3ccccc3)c(=O)n2CC(=O)NCc2cc3cnccc3[nH]2)cc1 (centres unmarked)           pIC50        > 7.00
 5  O=C(Cn1c(N2CCOCC2)ncc(NC(=O)c2coc(-c3ccccc3)n2)c1=O)NCc1cc2cnccc2[nH]1           pIC50        > 7.00
 6  O=C(Cn1c(-c2ccccc2)ncc(NCCCc2ccc(OC(F)F)cc2)c1=O)NCc1cc2cnccc2[nH]1           pIC50        > 7.00
 7  C[C@@H](NC(=O)Cn1c(-c2ccccc2)ncc(NCCCc2ccccc2)c1=O)c1cc2cnccc2[nH]1           pIC50        > 7.00
 8  O=C(Cn1c(N2CCCCC2)cnc(NCc2cc(-c3ccccc3)ns2)c1=O)NCc1cc2cnccc2[nH]1           pIC50        > 7.00
 9  O=C(Cn1c(-c2cccs2)ncc(NCc2ccc3oc4ccccc4c3c2)c1=O)NCc1cc2cnccc2[nH]1           pIC50        > 7.00
10  O=C(NCCOc1nc(-c2ccccc2)ncc1NCc1ccc2oc3ccccc3c2c1)c1cc2cnccc2[nH]1           pIC50        < 6.00

Which pIC50 reading was recorded for the compound O=C(Cn1c(-c2ccccc2)ncc(NCCCc2ccc(OC3COC3)cc2)c1=O)NCc1cc2cnccc2[nH]1 ? > 7.00
